- tested_target: UniProt P22734
- run_description: Inhibition of MB-COMT in rat brain homogenates using adrenaline as substrate and SAM as cofactor preincubated for 20 mins followed by substrate addition and measured after 5 mins
- Assay type: tissue-based
observed_property: pIC50
Scale: negative log10 of molar concentration, which is what pIC50 denotes.

Record O=C(/C=C/C=C/c1ccc(O)c(O)c1)NCCc1ccccc1 . Reported pIC50: 5.88

Record O=C(/C=C/C=C/c1ccc(O)c(O)c1)Nc1ccccc1 . Reported pIC50: 5.79

Record N#C/C(=C\C=C\c1ccc(O)c(O)c1)C(=O)Nc1ccccc1 . Reported pIC50: 5.62

Record O=C(/C=C/C=C/c1ccc(O)c(O)c1)NCc1ccccc1 . Reported pIC50: 5.83

Record O=C(/C=C/C=C/c1ccc(O)c(O)c1)N1CCCCC1 . Reported pIC50: 5.78

Record N#C/C(=C\C=C\c1ccc(O)c(O)c1)C(=O)NCCc1ccccc1 . Reported pIC50: 5.90

Record N#C/C(=C\C=C\c1ccc(O)c(O)c1)C(=O)N1CCCCC1 . Reported pIC50: 5.88

###

- tested_target: Catechol O-methyltransferase (Rattus norvegicus, UniProt P22734)
- Sequence (P22734 whole entry): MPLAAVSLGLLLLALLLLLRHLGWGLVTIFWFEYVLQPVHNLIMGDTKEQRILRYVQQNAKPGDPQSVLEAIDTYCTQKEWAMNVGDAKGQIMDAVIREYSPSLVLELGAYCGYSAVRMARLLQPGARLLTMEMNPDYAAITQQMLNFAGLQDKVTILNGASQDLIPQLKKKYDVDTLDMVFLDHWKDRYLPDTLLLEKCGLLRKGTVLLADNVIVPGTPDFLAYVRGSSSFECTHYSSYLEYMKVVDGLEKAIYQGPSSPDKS
- run_description: Inhibition of MB-COMT in rat liver homogenates using adrenaline as substrate and SAM as cofactor preincubated for 20 mins followed by substrate addition and measured after 5 mins
- Format: tissue-based
Please go through the items and note down their IC50.
Unit µM implied. Number only.

Item N#C/C(=C\C=C\c1ccc(O)c(O)c1)C(=O)NCCc1ccccc1 was tested on Catechol O-methyltransferase (Rattus norvegicus, UniProt P22734); the reported IC50 is 4

Item O=C(/C=C/C=C/c1ccc(O)c(O)c1)N1CCCCC1 was tested on Catechol O-methyltransferase (Rattus norvegicus, UniProt P22734); the reported IC50 is 3.84

Item N#C/C(=C\C=C\c1ccc(O)c(O)c1)C(=O)Nc1ccccc1 was tested on Catechol O-methyltransferase (Rattus norvegicus, UniProt P22734); the reported IC50 is 3.74

Item O=C(/C=C/C=C/c1ccc(O)c(O)c1)Nc1ccccc1 was tested on Catechol O-methyltransferase (Rattus norvegicus, UniProt P22734); the reported IC50 is 6.13

Item O=C(/C=C/C=C/c1ccc(O)c(O)c1)NCCc1ccccc1 was tested on Catechol O-methyltransferase (Rattus norvegicus, UniProt P22734); the reported IC50 is 3.64

Item O=C(/C=C/C=C/c1ccc(O)c(O)c1)NCc1ccccc1 was tested on Catechol O-methyltransferase (Rattus norvegicus, UniProt P22734); the reported IC50 is 4.27

Item N#C/C(=C\C=C\c1ccc(O)c(O)c1)C(=O)N1CCCCC1 was tested on Catechol O-methyltransferase (Rattus norvegicus, UniProt P22734); the reported IC50 is 2.69

###

Please go through the items and note down their Ratio IC50.
- Species: Homo sapiens
- run_description: Selectivity index, ratio of IC50 for human MAO-A to IC50 for human MAO-B

Record N#C/C(=C\C=C\c1ccc(O)c(O)c1)C(=O)Nc1ccccc1 . Reported Ratio IC50: > 2.2

Record N#C/C(=C\C=C\c1ccc(O)c(O)c1)C(=O)N1CCCCC1 . Reported Ratio IC50: > 2.3

Record N#C/C(=C\C=C\c1ccc(O)c(O)c1)C(=O)NCc1ccccc1 . Reported Ratio IC50: > 8.7

Record N#C/C(=C\C=C\c1ccc(O)c(O)c1)C(=O)NCCc1ccccc1 . Reported Ratio IC50: > 2.3

Record O=C(/C=C/C=C/c1ccc(O)c(O)c1)N1CCCCC1 . Reported Ratio IC50: > 4
